Exercise: state measured chromatographic logP for each of the compounds provided.
assay-method-text: log P by reversed-phase HPLC (C18), EEC directive 79/831 Annex V.A8, neutral range
Assay type: physicochemical
conditions-used: reversed-phase HPLC column (C18); neutral range, pH 7.8; HPLC C18, 43° C.; read-out: Logp [n]
Numbers only.

For every listed record, write down its chromatographic logP.
1. CCN(C(=O)c1cnc(-n2cc(C#N)cn2)n1C)c1cccnc1
2. CN(C(=O)c1cnc(-n2cccc2)n1C)c1cccnc1
3. CN(C(=O)c1cnc(-n2cnc(C(F)(F)F)c2)n1C)c1cccnc1
4. CN(C(=O)c1cnc(Cl)n1C)c1cccnc1
5. CN(C(=O)c1cnc(N2CCC(C#N)CC2)n1C)c1cccnc1
6. CN(C(=O)c1cnc(-n2ccc(Cl)n2)n1C)c1cccnc1

1.42
1.27
1.38
0.88
1.16
1.48

For every listed record, write down its chromatographic logP.
1. CN(C(=O)c1cnc(-n2ccc(C(F)(F)F)n2)n1C)c1cccnc1
2. CN(C(=O)c1cnc(-n2cc(C(F)(F)F)cn2)n1C)c1cccnc1
3. CN(C(=O)c1cnc(N2CCOCC2)n1C)c1cccnc1

[1.87, 1.82, 0.85]

---

Tested on: Myzus persicae
assay-method-text: Myzus persicae - oral test (MYZUPE O)
Assay type: in vivo
conditions-used: Myzus persicae, po, 120 h; MYZUPE O, 4 ppm, 5 dat; read-out: % efficacy
Method: Solvent: 100 parts by weight of acetone 50 μl of the active compound preparation are transferred into microtitre plates and made up to a final volume of 200 μl with 150 μl of IPL41 insect medium (33%+15% sugar). […] After 5 days, the efficacy in % is determined. […] After the desired period of time (dat), the efficacy in % is determined. […]
Exercise: state measured Emax at 4 ppm for each of the compounds provided.
Give bare numbers, in %.

compound=CN(C(=O)c1cnc(-n2cnc(C(F)(F)F)c2)n1C)c1cccnc1 reported_property="Emax at 4 ppm" reported_value=100
compound=CCN(C(=O)c1cnc(-n2cc(C#N)cn2)n1C)c1cccnc1 reported_property="Emax at 4 ppm" reported_value=100
compound=COc1ncn(-c2ncc(C(=O)N(C)c3cccnc3)n2C)n1 reported_property="Emax at 4 ppm" reported_value=90
compound=CN(C(=O)c1cnc(-n2ccc(Cl)n2)n1C)c1cccnc1 reported_property="Emax at 4 ppm" reported_value=100
compound=CN(C(=O)c1cnc(-n2cccc2)n1C)c1cccnc1 reported_property="Emax at 4 ppm" reported_value=100
compound=CN(C(=O)c1cnc(N2CCC(C#N)CC2)n1C)c1cccnc1 reported_property="Emax at 4 ppm" reported_value=100

For every listed record, write down its Emax at 4 ppm.
1. Cc1nc(C(=O)Nc2cccnc2)c[nH]1 [Ex. No. 14 WO2011/009804, reference compound]
2. O=C(Nc1cccnc1)c1c[nH]cn1 [Ex. No. 13 WO2011/009804, reference compound]

[0, 0]

---

assay-method-text: log P by reversed-phase HPLC (C18), EEC directive 79/831 Annex V.A8, neutral range
Type: physicochemical
conditions-used: neutral range, pH 7.8; HPLC C18, 43° C.
reported-property: Logp [n]
Answers are plain numbers.

Solved entries (count: 4):
molecule=CSc1ncn(-c2ncc(C(=O)N(C)c3cccnc3)n2C)n1 reported_property="Logp [n]" reported_value=1.27
molecule=CN(C(=O)c1cnc(-n2cc3c(n2)CCC3)n1C)c1cccnc1 reported_property="Logp [n]" reported_value=1.5
molecule=CCN(C(=O)c1cnc(-n2ccc(C#N)n2)n1C)c1cccnc1 reported_property="Logp [n]" reported_value=1.53
molecule=Cc1ccn(-c2ncc(C(=O)N(C)c3cccnc3)n2C)n1 reported_property="Logp [n]" reported_value=1.18

For every listed record, write down its Logp [n].
1. CC1CCN(c2ncc(C(=O)N(C)c3cccnc3)n2C)CC1
2. CN(C(=O)c1cnc(-n2cnc(Cl)n2)n1C)c1cccnc1
3. CCN(C(=O)c1cnc(-n2cc(C(F)(F)F)cn2)n1C)c1cccnc1
4. CN(C(=O)c1cnc(N2CCC(c3ccccc3)CC2)n1C)c1cccnc1
5. CN(C(=O)c1cnc(N2CCCCC2)n1C)c1cccnc1
6. CN(C(=O)c1cnc(-n2ccc(C#N)n2)n1C)c1cccnc1

1. 1.87
2. 1.17
3. 2.09
4. 2.38
5. 1.53
6. 1.31

For every listed record, write down its Logp [n].
1. CN(C(=O)c1cnc(-n2cc(Cl)cn2)n1C)c1cccnc1
2. CN(C(=O)c1cnc(-n2ncc(C#N)c2N)n1C)c1cccnc1

[1.49, 0.78]

For every listed record, write down its Logp [n].
1. Cc1cn(-c2ncc(C(=O)N(C)c3cccnc3)n2C)nc1C
2. CC1CC(C)CN(c2ncc(C(=O)N(C)c3cccnc3)n2C)C1 (centres unmarked)
3. CN(C(=O)c1cnc(-n2cnc(C#N)n2)n1C)c1cccnc1

1: 1.42; 2: 2.21; 3: 1.22

For every listed record, write down its Logp [n].
1. CN(C(=O)c1cnc(-n2cc(C#N)cn2)n1C)c1cccnc1
2. CN(C(=O)c1cnc(-n2cccn2)n1C)c1cccnc1
3. CC(C)c1cnn(-c2ncc(C(=O)N(C)c3cccnc3)n2C)c1
4. CSc1ccn(-c2ncc(C(=O)N(C)c3cccnc3)n2C)n1
5. Cc1cnn(-c2ncc(C(=O)N(C)c3cccnc3)n2C)c1

1.14
1.01
1.84
1.57
1.29
